Below, each entry is listed alongside its reported GI50.
target: Ba/F3-EGFR-WT cells (Homo sapiens, UniProt P00533); experiment: Ba/F3 cell survival assay (Cell Titer-Glo), WT EGFR; format: cell-based; conditions: without IL-3, with 10 ng/mL EGF, 48 h; read-out: BA/F3 (wild type) IC50
Sequence (P00533 whole entry, change not shown): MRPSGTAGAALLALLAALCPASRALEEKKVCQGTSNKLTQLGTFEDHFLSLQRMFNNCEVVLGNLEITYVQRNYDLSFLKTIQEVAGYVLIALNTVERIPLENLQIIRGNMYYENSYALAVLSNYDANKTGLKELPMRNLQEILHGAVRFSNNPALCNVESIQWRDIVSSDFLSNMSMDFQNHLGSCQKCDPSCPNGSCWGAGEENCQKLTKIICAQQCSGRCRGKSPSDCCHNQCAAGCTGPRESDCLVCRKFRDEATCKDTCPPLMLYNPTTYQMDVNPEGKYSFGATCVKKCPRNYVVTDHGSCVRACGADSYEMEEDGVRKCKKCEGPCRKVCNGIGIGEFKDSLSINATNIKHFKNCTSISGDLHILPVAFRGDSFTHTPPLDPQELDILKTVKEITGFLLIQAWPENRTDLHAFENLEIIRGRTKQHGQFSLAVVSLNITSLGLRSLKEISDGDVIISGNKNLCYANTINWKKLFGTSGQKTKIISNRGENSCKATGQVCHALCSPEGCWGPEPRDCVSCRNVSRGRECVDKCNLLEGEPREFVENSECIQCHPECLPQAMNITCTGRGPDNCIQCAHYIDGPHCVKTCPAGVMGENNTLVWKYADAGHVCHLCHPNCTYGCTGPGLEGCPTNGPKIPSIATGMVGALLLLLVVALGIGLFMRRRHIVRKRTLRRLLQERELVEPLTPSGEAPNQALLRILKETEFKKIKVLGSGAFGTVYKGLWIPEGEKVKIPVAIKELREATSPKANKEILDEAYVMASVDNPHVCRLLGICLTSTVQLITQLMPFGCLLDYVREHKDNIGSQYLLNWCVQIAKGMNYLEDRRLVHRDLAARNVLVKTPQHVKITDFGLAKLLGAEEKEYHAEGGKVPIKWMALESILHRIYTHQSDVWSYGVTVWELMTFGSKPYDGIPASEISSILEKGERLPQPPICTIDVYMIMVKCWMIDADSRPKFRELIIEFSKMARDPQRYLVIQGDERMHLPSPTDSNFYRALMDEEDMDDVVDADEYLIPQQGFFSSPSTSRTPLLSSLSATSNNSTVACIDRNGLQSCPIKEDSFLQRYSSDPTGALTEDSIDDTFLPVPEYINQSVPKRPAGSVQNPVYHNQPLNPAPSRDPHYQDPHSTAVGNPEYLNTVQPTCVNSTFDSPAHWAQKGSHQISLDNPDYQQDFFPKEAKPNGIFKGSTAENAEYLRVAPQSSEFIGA
API: value field is a number in nM; no unit string.

Please review the entries below; each comes with its answer.
• CCc1c(F)cccc1Nc1c(-c2ccncc2OCC2COCCO2)[nH]c2c1C(=O)NCC2 (single isomer, unassigned) [Example 66] = 252
• CCc1c(F)cccc1Nc1c(-c2ccncc2OCC2COC(C)(C)CO2)[nH]c2c1C(=O)NCC2 (single isomer, unassigned) [Example 69] = 312

Give the value of GI50 reported for the following: Cc1c(F)cccc1Nc1c(-c2ccncc2OCC2CN(C)CCO2)[nH]c2c1C(=O)NCC2 (single isomer, unassigned) [Example 63]
1370

Give the value of GI50 reported for the following: COc1c(F)cccc1Nc1c(-c2ccncc2OCCC2COCCO2)[nH]c2c1C(=O)NCC2 (single isomer, unassigned) [Example 35]
261

Give the value of GI50 reported for the following: COc1c(Cl)cccc1Nc1c(-c2ccncc2O[C@H](C)C2COCCO2)[nH]c2c1C(=O)NCC2 (single isomer, unassigned) [Example 61]
3770

Give the value of GI50 reported for the following: COc1c(F)cccc1Nc1c(-c2ccncc2OCC2COCCO2)[nH]c2c1C(=O)NCC2 (single isomer, unassigned) [Example 5]
262
